# Species on record: Rattus norvegicus
# Method Notes: Open TG-GATES - Regimen: Single
# Type: toxicity, organism-based, Sprague-Dawley
# Parameters: regimen Single, gender Male, age 6 weeks
# Run Parameters: in vivo, po, 100 mg/kg, 24 h, tissue Blood, route gavage, dose level Low
Attribute Measured: Mono (%)
Give the value in % but do not write % after it.

The recorded Mono for Cc1nnc2n1-c1ccc(Cl)cc1C(c1ccccc1Cl)=NC2 is 3.2

The recorded Mono for CN/C(=N/CCSCc1nc[nH]c1C)NC#N is 3.2

The recorded Mono for CNC(=C[N+](=O)[O-])NCCSCc1ccc(CN(C)C)o1 is 2.4

The recorded Mono for COC(=O)C1=C(C)NC(C)=C(C(=O)OC)C1c1ccccc1[N+](=O)[O-] is 3.8

The recorded Mono for O=C(OC[C@H]1O[C@@H](OC(=O)c2cc(O)c(O)c(OC(=O)c3cc(O)c(O)c(O)c3)c2)[C@H](OC(=O)c2cc(O)c(O)c(OC(=O)c3cc(O)c(O)c(O)c3)c2)[C@@H](OC(=O)c2cc(O)c(O)c(OC(=O)c3cc(O)c(O)c(O)c3)c2)[C@@H]1OC(=O)c1cc(O)c(O)c(OC(=O)c2cc(O)c(O)c(O)c2)c1)c1cc(O)c(O)c(OC(=O)c2cc(O)c(O)c(O)c2)c1 is 5.4

* * *

# Species: Rattus norvegicus
# Method Notes: Open TG-GATES - Regimen: Single
# Type: toxicity, organism-based, Sprague-Dawley
# Parameters: regimen Single, gender Male, age 6 weeks
# Run Parameters: in vivo, po, 300 mg/kg, 3 h, tissue Plasma, route gavage, dose level Middle
Exercise: for every item that follows, state its recorded CRE.
Give the value in mg/dL but do not write mg/dL after it.

The recorded CRE for CNC(=C[N+](=O)[O-])NCCSCc1ccc(CN(C)C)o1 is 0.4

The recorded CRE for CN/C(=N/CCSCc1nc[nH]c1C)NC#N is 0.4

The recorded CRE for O=C(OC[C@H]1O[C@@H](OC(=O)c2cc(O)c(O)c(OC(=O)c3cc(O)c(O)c(O)c3)c2)[C@H](OC(=O)c2cc(O)c(O)c(OC(=O)c3cc(O)c(O)c(O)c3)c2)[C@@H](OC(=O)c2cc(O)c(O)c(OC(=O)c3cc(O)c(O)c(O)c3)c2)[C@@H]1OC(=O)c1cc(O)c(O)c(OC(=O)c2cc(O)c(O)c(O)c2)c1)c1cc(O)c(O)c(OC(=O)c2cc(O)c(O)c(O)c2)c1 is 0.5

The recorded CRE for COC(=O)C1=C(C)NC(C)=C(C(=O)OC)C1c1ccccc1[N+](=O)[O-] is 0.3

The recorded CRE for Cc1nnc2n1-c1ccc(Cl)cc1C(c1ccccc1Cl)=NC2 is 0.1

* * *

# Species: Rattus norvegicus
# Method Notes: Open TG-GATES - Regimen: Daily Repeat
# Assay type: toxicity, organism-based, Sprague-Dawley
# Parameters: regimen Daily Repeat, gender Male, age 6 weeks
# Run Parameters: in vivo, po, 0 mg/kg, […], tissue Plasma, route gavage, dose level Control, time 28 day
Attribute Measured: Ca (mg/dL)
Give the value in mg/dL but do not write mg/dL after it.

The recorded Ca for CC(C)NNC(=O)c1ccncc1 is 10.7

The recorded Ca for Cc1nnc2n1-c1ccc(Cl)cc1C(c1ccccc1Cl)=NC2 is 10.7

The recorded Ca for CCCc1cc(=O)[nH]c(=S)[nH]1 is 10.8

The recorded Ca for O=C(OC[C@H]1O[C@@H](OC(=O)c2cc(O)c(O)c(OC(=O)c3cc(O)c(O)c(O)c3)c2)[C@H](OC(=O)c2cc(O)c(O)c(OC(=O)c3cc(O)c(O)c(O)c3)c2)[C@@H](OC(=O)c2cc(O)c(O)c(OC(=O)c3cc(O)c(O)c(O)c3)c2)[C@@H]1OC(=O)c1cc(O)c(O)c(OC(=O)c2cc(O)c(O)c(O)c2)c1)c1cc(O)c(O)c(OC(=O)c2cc(O)c(O)c(O)c2)c1 is 11

The recorded Ca for COC(=O)C1=C(C)NC(C)=C(C(=O)OC)C1c1ccccc1[N+](=O)[O-] is 10.7

The recorded Ca for CNC(=C[N+](=O)[O-])NCCSCc1ccc(CN(C)C)o1 is 10.4

The recorded Ca for CCOc1ccc(NC(C)=O)cc1 is 10.7

* * *

# Species on record: Rattus norvegicus
# Method Notes: Open TG-GATES - Regimen: Daily Repeat
# Assay type: toxicity, organism-based, Sprague-Dawley
# Design: regimen Daily Repeat, gender Male, age 6 weeks
# Run Parameters: in vivo, po, 0 mg/kg, […], tissue Blood, route gavage, dose level Control, time 7 day
Attribute Measured: Neu (%)
Give the value in % but do not write % after it.

The recorded Neu for Cc1nnc2n1-c1ccc(Cl)cc1C(c1ccccc1Cl)=NC2 [TRIAZOLAM] is 19.4

The recorded Neu for CN(C)CCC(c1ccc(Cl)cc1)c1ccccn1 (stereo unspecified) [CHLORPHENIRAMINE] is 16.6

The recorded Neu for Brc1ccccc1 [BROMOBENZENE] is 18

The recorded Neu for NC1=NC(=O)C(c2ccccc2)O1 (stereo unspecified) [PEMOLINE] is 19.2

The recorded Neu for CN/C(=N/CCSCc1nc[nH]c1C)NC#N [CIMETIDINE] is 15

The recorded Neu for Nc1c2c(nc3ccccc13)CCCC2 [TACRINE] is 11

* * *

# Species: Rattus norvegicus
# Method Notes: Open TG-GATES - Regimen: Single
# Assay type: toxicity, organism-based, Sprague-Dawley
# Set-up: regimen Single, gender Male, age 6 weeks
# Run Parameters: in vivo, po, 100 mg/kg, 3 h, tissue Plasma, route gavage, dose level Low
Attribute Measured: GLC (mg/dL)
Give the value in mg/dL but do not write mg/dL after it.

The recorded GLC for O=C(OC[C@H]1O[C@@H](OC(=O)c2cc(O)c(O)c(OC(=O)c3cc(O)c(O)c(O)c3)c2)[C@H](OC(=O)c2cc(O)c(O)c(OC(=O)c3cc(O)c(O)c(O)c3)c2)[C@@H](OC(=O)c2cc(O)c(O)c(OC(=O)c3cc(O)c(O)c(O)c3)c2)[C@@H]1OC(=O)c1cc(O)c(O)c(OC(=O)c2cc(O)c(O)c(O)c2)c1)c1cc(O)c(O)c(OC(=O)c2cc(O)c(O)c(O)c2)c1 [TANNIC ACID] is 198

The recorded GLC for COC(=O)C1=C(C)NC(C)=C(C(=O)OC)C1c1ccccc1[N+](=O)[O-] [NIFEDIPINE] is 227.6

* * *

# Organism: Rattus norvegicus
# Method Notes: Open TG-GATES - Regimen: Single
# Format: toxicity, organism-based, Sprague-Dawley
# Parameters: regimen Single, gender Male, age 6 weeks
# Run Parameters: in vivo, po, 1000 mg/kg, 3 h, tissue Plasma, route gavage, dose level High
Attribute Measured: DBIL
Give the number first and the unit second.

The recorded DBIL for COC(=O)C1=C(C)NC(C)=C(C(=O)OC)C1c1ccccc1[N+](=O)[O-] is 0.008 mg/dL

The recorded DBIL for Cc1nnc2n1-c1ccc(Cl)cc1C(c1ccccc1Cl)=NC2 is 0.008 mg/dL

The recorded DBIL for CN/C(=N/CCSCc1nc[nH]c1C)NC#N is 0.068 mg/dL

* * *

# Organism: Rattus norvegicus
# Method Notes: Open TG-GATES - Regimen: Daily Repeat
# Assay type: toxicity, organism-based, Sprague-Dawley
# Design: regimen Daily Repeat, gender Male, age 6 weeks
# Run Parameters: in vivo, po, 1000 mg/kg, 72 h, tissue Plasma, route gavage, dose level High, time 3 day
Attribute Measured: Ca (mg/dL)
Give the value in mg/dL but do not write mg/dL after it.

The recorded Ca for CNC(=C[N+](=O)[O-])NCCSCc1ccc(CN(C)C)o1 is 11

The recorded Ca for Cc1nnc2n1-c1ccc(Cl)cc1C(c1ccccc1Cl)=NC2 is 11.5

The recorded Ca for CCOc1ccc(NC(C)=O)cc1 is 11

The recorded Ca for CN/C(=N/CCSCc1nc[nH]c1C)NC#N is 11

The recorded Ca for O=C(OC[C@H]1O[C@@H](OC(=O)c2cc(O)c(O)c(OC(=O)c3cc(O)c(O)c(O)c3)c2)[C@H](OC(=O)c2cc(O)c(O)c(OC(=O)c3cc(O)c(O)c(O)c3)c2)[C@@H](OC(=O)c2cc(O)c(O)c(OC(=O)c3cc(O)c(O)c(O)c3)c2)[C@@H]1OC(=O)c1cc(O)c(O)c(OC(=O)c2cc(O)c(O)c(O)c2)c1)c1cc(O)c(O)c(OC(=O)c2cc(O)c(O)c(O)c2)c1 is 10.9

* * *

# Species on record: Rattus norvegicus
# Method Notes: Open TG-GATES - Regimen: Daily Repeat
# Type: toxicity, organism-based, Sprague-Dawley
# Set-up: regimen Daily Repeat, gender Male, age 6 weeks
# Run Parameters: in vivo, po, 100 mg/kg, […], tissue Blood, route gavage, dose level Low, time 7 day
Exercise: for every item that follows, state its recorded Bas.
Give the value in % but do not write % after it.

The recorded Bas for COC(=O)C1=C(C)NC(C)=C(C(=O)OC)C1c1ccccc1[N+](=O)[O-] [NIFEDIPINE] is 0.2

The recorded Bas for CCOc1ccc(NC(C)=O)cc1 [PHENACETIN] is 0

The recorded Bas for CNC(=C[N+](=O)[O-])NCCSCc1ccc(CN(C)C)o1 [RANITIDINE] is 0

The recorded Bas for Cc1nnc2n1-c1ccc(Cl)cc1C(c1ccccc1Cl)=NC2 [TRIAZOLAM] is 0

The recorded Bas for O=C(OC[C@H]1O[C@@H](OC(=O)c2cc(O)c(O)c(OC(=O)c3cc(O)c(O)c(O)c3)c2)[C@H](OC(=O)c2cc(O)c(O)c(OC(=O)c3cc(O)c(O)c(O)c3)c2)[C@@H](OC(=O)c2cc(O)c(O)c(OC(=O)c3cc(O)c(O)c(O)c3)c2)[C@@H]1OC(=O)c1cc(O)c(O)c(OC(=O)c2cc(O)c(O)c(O)c2)c1)c1cc(O)c(O)c(OC(=O)c2cc(O)c(O)c(O)c2)c1 [TANNIC ACID] is 0

The recorded Bas for CN/C(=N/CCSCc1nc[nH]c1C)NC#N [CIMETIDINE] is 0.2
